target: human Y4 receptor (human, UniProt P50391 1-375); test: 125I-PP displacement
Sequence (P50391 whole entry): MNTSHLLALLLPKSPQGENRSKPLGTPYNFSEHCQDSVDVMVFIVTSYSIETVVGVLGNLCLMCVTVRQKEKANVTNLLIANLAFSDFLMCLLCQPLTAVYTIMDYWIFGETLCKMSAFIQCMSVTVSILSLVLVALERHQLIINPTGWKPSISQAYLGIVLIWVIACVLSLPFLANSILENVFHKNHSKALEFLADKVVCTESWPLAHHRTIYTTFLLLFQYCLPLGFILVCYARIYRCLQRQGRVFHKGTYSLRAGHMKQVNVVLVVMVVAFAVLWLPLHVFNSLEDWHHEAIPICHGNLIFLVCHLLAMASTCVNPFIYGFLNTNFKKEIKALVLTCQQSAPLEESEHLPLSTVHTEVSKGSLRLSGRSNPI
pIC50: −log10 of the molar value. No end group written: not given here.
Known pIC50 of a selection of binders

{"binder": "PAPLEAVYPGDNATPEQMARYYSELRRYINKLTRPRY (ends and bridges not checked) [compound of SEQ ID NO:702 (code 4058286)]", "pIC50": 10.03}
{"binder": "PLEPVYPGDNATPEQLARYYSELRRYINKLTRPRY [4058296]", "pIC50": 10.28}
{"binder": "HAPLEPTYPGDNATPEQMARYAAALRRYINKLTRPRY [4058069]", "pIC50": 10.15}
{"binder": "GAPLEPEYPGDNATPEEMAKYAAELRRYINKLTRPRY [4058073]", "pIC50": 9.88}
{"binder": "PLEPSYPGDNATPEQMAKYAAELRRYINLLTRPRY [4058152]", "pIC50": 10.06}
